B1: Zinc finger MYM-type protein 3, residues 405 to 444; numbered along this chain, Q14202 (parent)
chain: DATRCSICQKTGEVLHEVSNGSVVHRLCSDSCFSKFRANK

Variants of: B1
Assay: abundance fitness (aPCA) (normalised: wild type 0, dead -1); higher = more abundant; growth selection in yeast, the domain comes from the species named
Conditions: Homo sapiens
measuredQuantity: abundance fitness
Just the number, please, no unit after it.

mutation=Q9M observedmeasurement=-0.123
mutation=S29E observedmeasurement=-0.325
mutation=S34Y observedmeasurement=-1.01
mutation=R26F observedmeasurement=-0.177
mutation=S19Q observedmeasurement=0.059
mutation=I7H observedmeasurement=-0.267
mutation=F36Q observedmeasurement=0.002
mutation=A2I observedmeasurement=0.327
mutation=N39V observedmeasurement=0.058
mutation=Q9L observedmeasurement=-0.22

Provide one value: measured abundance fitness of `S22Q`
-0.001

# credit: the Human Domainome abundance scans (Beltran et al. 2025)
